Target or system: T1, TRβ1 DBD-LBD (TR DL, TRβ1ΔAB) (human, UniProt P10828 102-461)
T1 sequence: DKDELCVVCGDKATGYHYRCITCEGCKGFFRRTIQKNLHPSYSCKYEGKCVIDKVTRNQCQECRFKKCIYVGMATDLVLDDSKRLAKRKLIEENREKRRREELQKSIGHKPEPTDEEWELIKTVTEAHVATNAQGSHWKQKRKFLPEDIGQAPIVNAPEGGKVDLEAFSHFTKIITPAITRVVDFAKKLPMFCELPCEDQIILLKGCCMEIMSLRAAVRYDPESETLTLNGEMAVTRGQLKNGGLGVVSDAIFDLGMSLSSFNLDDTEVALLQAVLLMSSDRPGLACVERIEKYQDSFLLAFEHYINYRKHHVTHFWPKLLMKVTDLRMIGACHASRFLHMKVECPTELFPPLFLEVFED
Experimental protocol: fluorescence anisotropy; no T3; Hill n 3.5±0.1; Fluorescence anisotropy: 10 nM DNA, 20 mM Hepes pH 8.0, 50 mM NaCl, 1 mM MgCl2, 3 mM DTT, 5% glycerol, 10°C; agarose gel 1.3% in 0.5x TBE
Protocol conditions: protein: recombinant; tags: His (pET28a); chain copies: 2; label: 5' fluorescein (FITC) on forward strand; blunt
pKd: −log10 of the molar value.
Test readout: pKd

>>> number("TSH NRE (dsDNA) DNA 1: TGGGTCACCACAGCATCTGCTCACCAATGCAAAGT DNA 2: ACTTTGCATTGGTGAGCAGATGCTGTGGTGACCCA")
6.50
